// provenance: paper PMC10141580

# Tested on: panel of 140 standard cancer cell lines
# TEST SUMMARY: ProliFiler-140 cancer cell line screen (CellTiterGlo, 72 h)
# Assay type: cell-based
# STUDY CONDITIONS: read-out: IC50 [M] (ProliFiler-140); U-266 (Blood)
MEASURED METRIC: IC50
Give your result as the value with the unit written after it.

Tell me the measured IC50 of COc1cc2cc(C(=O)N3C[C@@H](CCl)c4c3cc(OC(=O)N3CCN(C(=O)CCC(=O)N5CCN(C)CC5)[C@H]5CSSC[C@H]53)c3ccccc43)[nH]c2c(OC)c1OC [P-SS66C-CBI-TMI] , please.
9.4e-09 M

###

# System: NCI-60 standardized human tumor cell line panel
# TEST SUMMARY: cells
# Assay type: cell-based
# STUDY CONDITIONS: A549/ATCC; read-out: GI50
MEASURED METRIC: log10 of GI50 (log10 of the value in nM)
Reminder: these figures are log10 of reported GI50, in nM before transformation.

Solved entries:
{"MOLECULE": "COc1cc2cc(C(=O)N3C[C@@H](CCl)c4c3cc(OC(=O)N(CCC(=O)N3CCN(C)CC3)C3CCCCC3)c3ccccc43)[nH]c2c(OC)c1OC", "log10 of GI50": 3.30}
{"MOLECULE": "COc1cc2cc(C(=O)N3C[C@@H](CCl)c4c3cc(OC(=O)N(C)CCSSCCN3CCOCC3)c3ccccc43)[nH]c2c(OC)c1OC [SS00M-CBI-TMI]", "log10 of GI50": 1.49}
{"MOLECULE": "COc1cc2cc(C(=O)N3C[C@@H](CCl)c4c3cc(OC(=O)N(CCC(=O)N3CCN(C)CC3)[C@H]3CCSSC3)c3ccccc43)[nH]c2c(OC)c1OC", "log10 of GI50": 2.18}
{"MOLECULE": "COc1cc2cc(C(=O)N3CC(CCl)c4c3cc(OC(=O)N3CCN(C)C5CSSCC53)c3ccccc43)[nH]c2c(OC)c1OC (mixture of isomers) [Me-SS66C-CBI-TMI]", "log10 of GI50": 2.26}

Recorded log10 of GI50 for COc1cc2cc(C(=O)N3CC(CCl)c4c3cc(OC(=O)N3CCN(C)C5CSSCC53)c3ccccc43)[nH]c2c(OC)c1OC (mixture of isomers) [Me-SS66T-CBI-TMI] , please?
1.08

###

# System: panel of 140 standard cancer cell lines
# TEST SUMMARY: ProliFiler-140 cancer cell line screen (CellTiterGlo, 72 h)
# Assay type: cell-based
# STUDY CONDITIONS: Homo sapiens, HCC827, read-out: IC50 [M] (ProliFiler-140), HCC827 (Lung)
MEASURED METRIC: IC50 (M)
Please state the figure in M; there is no need to write the unit.

State the recorded IC50 for this entry: COc1cc2cc(C(=O)N3C[C@@H](CCl)c4c3cc(OC(=O)N3CCN(C(=O)CCC(=O)N5CCN(C)CC5)[C@H]5CSSC[C@H]53)c3ccccc43)[nH]c2c(OC)c1OC [P-SS66C-CBI-TMI]
9.1e-08

###

# Tested on: mouse
# TEST SUMMARY: Tolerability for repeated dose administration in vivo (summary)
# STUDY CONDITIONS: repeated dose administration

{"COMPOUND": "COc1cc2cc(C(=O)N3CC(CCl)c4c3cc(OC(=O)N3CCN(C)C5CSSCC53)c3ccccc43)[nH]c2c(OC)c1OC (mixture of isomers) [Me-SS66T-CBI-TMI]", "remarks": "well tolerated"}
{"COMPOUND": "COc1cc2cc(C(=O)N3C[C@@H](CCl)c4c3cc(OC(=O)N(CCC(=O)N3CCN(C)CC3)[C@H]3CCSSC3)c3ccccc43)[nH]c2c(OC)c1OC", "remarks": "well tolerated"}
{"COMPOUND": "COc1cc2cc(C(=O)N3C[C@@H](CCl)c4c3cc(OC(=O)N3CCN(C(=O)CCC(=O)N5CCN(C)CC5)[C@H]5CSSC[C@H]53)c3ccccc43)[nH]c2c(OC)c1OC [P-SS66C-CBI-TMI]", "remarks": "well tolerated"}
